- Tested on: Mus musculus
- ASSAY_PROTOCOL: Tested for antitumor activity in mice against B16F10 melanoma measured as reduction in number of metastases at 200 mg/kg (ip)
- Format: functional
VALUE_KIND: No. of metastases

[[record]]
chemical_smiles = "O=C(O)[C@H]1[C@H](CN2C(=O)c3ccccc3C2=O)CC[C@@H]1S(=O)(=O)CCc1ccc(-c2ccc(Cl)cc2)cc1"
endpoint_value = 109

[[record]]
chemical_smiles = "O=C(O)[C@H]1[C@H](Cn2nnc3ccccc3c2=O)CC[C@@H]1SCCc1ccc(-c2ccc(Cl)cc2)cc1"
endpoint_value = 31

[[record]]
chemical_smiles = "O=C(O)[C@H]1[C@H](CN2C(=O)c3ccccc3C2=O)CC[C@@H]1SCCc1ccc(-c2ccc(Cl)cc2)cc1"
endpoint_value = 43

[[record]]
chemical_smiles = "O=C(O)[C@H]1[C@H](CN2C(=O)c3ccccc3C2=O)CC[C@@H]1SCCc1ccc(-c2ccc(F)cc2)cc1"
endpoint_value = 24.5


====

Each entry below lists one item and its recorded MF value.
- Organism: Rattus norvegicus
- ASSAY_PROTOCOL: In vitro metabolic stability and first pass metabolism was evaluated in rat hepatic microsomes
- Format: ADME, Liver
VALUE_KIND: MF (%)

[[record]]
chemical_smiles = "O=C(O)[C@H]1[C@H](Cn2nnc3ccccc3c2=O)CC[C@@H]1Sc1ccc(-c2ccc(Cl)cc2)cc1"
endpoint_value = 74

[[record]]
chemical_smiles = "O=C(O)[C@H]1[C@H](Cn2nnc3ccccc3c2=O)CC[C@@H]1SCCc1ccc(-c2ccc(Cl)cc2)cc1"
endpoint_value = 76

[[record]]
chemical_smiles = "O=C(O)[C@H]1[C@H](CN2C(=O)c3ccccc3C2=O)CC[C@@H]1SCCc1ccc(-c2ccc(F)cc2)cc1"
endpoint_value = 55

[[record]]
chemical_smiles = "O=C(O)[C@H]1[C@H](CN2C(=O)c3ccccc3C2=O)CC[C@@H]1SCCc1ccc(-c2ccc(Cl)cc2)cc1"
endpoint_value = 43

[[record]]
chemical_smiles = "O=C(O)[C@H]1[C@H](CN2C(=O)c3ccccc3C2=O)CC[C@@H]1S(=O)(=O)CCc1ccc(-c2ccc(Cl)cc2)cc1"
endpoint_value = 58


====

- TARGET_OF_ASSAY: 72 kDa type IV collagenase (Homo sapiens, UniProt P08253)
- Sequence (P08253 whole entry): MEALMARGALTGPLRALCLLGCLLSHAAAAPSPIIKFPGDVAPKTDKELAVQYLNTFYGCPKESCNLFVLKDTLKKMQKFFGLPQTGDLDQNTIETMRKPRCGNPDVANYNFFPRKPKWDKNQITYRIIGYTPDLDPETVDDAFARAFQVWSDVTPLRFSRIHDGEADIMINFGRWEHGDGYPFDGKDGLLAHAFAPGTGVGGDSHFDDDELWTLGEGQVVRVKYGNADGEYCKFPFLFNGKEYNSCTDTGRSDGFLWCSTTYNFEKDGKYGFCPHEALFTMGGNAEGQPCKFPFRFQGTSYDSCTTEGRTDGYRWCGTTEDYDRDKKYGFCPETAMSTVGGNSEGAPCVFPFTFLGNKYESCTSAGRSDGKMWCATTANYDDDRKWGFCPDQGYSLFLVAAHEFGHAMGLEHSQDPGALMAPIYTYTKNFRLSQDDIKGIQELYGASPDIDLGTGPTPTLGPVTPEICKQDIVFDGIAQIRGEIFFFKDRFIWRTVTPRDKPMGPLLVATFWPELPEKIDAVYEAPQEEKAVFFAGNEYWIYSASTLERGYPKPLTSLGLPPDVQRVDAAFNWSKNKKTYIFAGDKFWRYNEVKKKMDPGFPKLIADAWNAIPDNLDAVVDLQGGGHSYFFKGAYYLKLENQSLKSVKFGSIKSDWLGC
VALUE_KIND: IC50 (nM)

[[record]]
chemical_smiles = "O=C(O)[C@H]1[C@H](CN2C(=O)c3ccccc3C2=O)CC[C@@H]1SCCc1ccc(-c2ccc(F)cc2)cc1"
value_kind = "IC50"
unit_abbrev = "nM"
endpoint_value = 62

[[record]]
chemical_smiles = "O=C(O)[C@H]1[C@H](Cn2nnc3ccccc3c2=O)CC[C@@H]1Sc1ccc(-c2ccncc2)cc1"
value_kind = "IC50"
unit_abbrev = "nM"
endpoint_value = 176

[[record]]
chemical_smiles = "O=C(O)[C@H]1[C@H](CN2C(=O)c3ccccc3C2=O)CC[C@@H]1SCCc1ccc(-c2ccccc2)cc1"
value_kind = "IC50"
unit_abbrev = "nM"
endpoint_value = 46

[[record]]
chemical_smiles = "O=C(O)[C@H]1[C@H](Cn2nnc3ccccc3c2=O)CC[C@@H]1S(=O)(=O)CCc1ccc(-c2ccc(Cl)cc2)cc1"
value_kind = "IC50"
unit_abbrev = "nM"
endpoint_value = 383

[[record]]
chemical_smiles = "O=C(O)[C@H]1[C@H](Cn2c(=O)nc3ccccn3c2=O)CC[C@@H]1Sc1ccc(-c2ccc(Cl)cc2)cc1"
value_kind = "IC50"
unit_abbrev = "nM"
endpoint_value = 9

[[record]]
chemical_smiles = "O=C(O)[C@H]1[C@H](CN2C(=O)c3ccccc3C2=O)CC[C@@H]1SCc1ccc(-c2ccccc2)cc1"
value_kind = "IC50"
unit_abbrev = "nM"
endpoint_value = 2800

[[record]]
chemical_smiles = "O=C(O)[C@H]1[C@H](CN2C(=O)c3ccccc3C2=O)CC[C@@H]1S(=O)(=O)CCc1ccc(-c2ccc(F)cc2)cc1"
value_kind = "IC50"
unit_abbrev = "nM"
endpoint_value = 76

[[record]]
chemical_smiles = "O=C(O)[C@H]1[C@H](CN2NNc3ccsc3C2=O)CC[C@@H]1Sc1ccc(-c2ccc(Cl)cc2)cc1"
value_kind = "IC50"
unit_abbrev = "nM"
endpoint_value = 20


The measured values listed here are drawn from ChEMBL document CHEMBL1145069.
